The following compounds are listed with their measured Kp at 1 h values.
# EXPERIMENTAL DETAILS: Ratio of drug level in brain to plasma in CD1 mouse at 5 mg/kg, iv after 1 hr
# Format: ADME, organism-based
# Set-up: dose 5 mg/kg, route intravenous
# CONDITION: brain and plasma, read-out: BPR

>  <MOLECULE>
CC(C)C[C@H](NC(=O)CCN(C)C)c1cc(Cl)ccc1N1CCN(C(=O)[C@H](C)Cc2ccc(Cl)cc2)CC1

>  <Kp at 1 h>
2.4

$$$$
>  <MOLECULE>
CC(C)C[C@@H](NC(=O)CN)c1cccnc1N1CCN(C(=O)[C@H](C)Cc2ccc(Cl)cc2Cl)CC1

>  <Kp at 1 h>
0.07

$$$$

* * *

# EXPERIMENTAL DETAILS: AUC in dog at 10 mg/kg, po
# Format: ADME, organism-based, Canis lupus familiaris
# Parameters: dose 10 mg/kg, route oral
# CONDITION: plasma
MEASURED QUANTITY: AUC (ng·h/mL)

>  <MOLECULE>
CC(C)C[C@H](NC(=O)CCN(C)C)c1cc(Cl)ccc1N1CCN(C(=O)[C@H](C)Cc2ccc(Cl)cc2)CC1

>  <VALUE REPORTED>
1480

$$$$

* * *

# EXPERIMENTAL DETAILS: Volume of distribution in monkey at 5 mg/kg, iv
# Format: ADME, organism-based, Macaca mulatta
# Parameters: dose 5 mg/kg, route intravenous
# CONDITION: rhesus monkey, in vivo
MEASURED QUANTITY: Vd (L/kg)

>  <MOLECULE>
CC(C)C[C@H](NC(=O)CCN(C)C)c1cc(Cl)ccc1N1CCN(C(=O)[C@H](C)Cc2ccc(Cl)cc2)CC1

>  <MEASURED QUANTITY>
Vd

>  <VALUE REPORTED>
8.5

$$$$

* * *

# EXPERIMENTAL DETAILS: Clearance in monkey at 5 mg/kg, iv
# Format: ADME, organism-based, Macaca mulatta
# Design: dose 5 mg/kg, route intravenous
# CONDITION: rhesus monkey, in vivo

>  <MOLECULE>
CC(C)C[C@H](NC(=O)CCN(C)C)c1cc(Cl)ccc1N1CCN(C(=O)[C@H](C)Cc2ccc(Cl)cc2)CC1

>  <UNITS LABEL>
mL/min/kg

>  <clearance>
24.3

$$$$

* * *

# EXPERIMENTAL DETAILS: Drug level in Sprague-Dawley rat brain at 10 mg/kg, po after 4 hrs
# Format: ADME, organism-based
# Parameters: dose 10 mg/kg, route oral
# CONDITION: read-out: Drug uptake
MEASURED QUANTITY: concentration at 4 h

>  <MOLECULE>
Cc1ccc(N2CCN(C(=O)[C@@H](Cc3ccc(Cl)cc3Cl)N3CCCC3=O)CC2)c([C@H](CC(C)C)NC(=O)CCN(C)C)c1

>  <VALUE REPORTED>
15 ng/g

$$$$
>  <MOLECULE>
Cc1ccc(N2CCN(C(=O)[C@H](C)Cc3ccc(Cl)cc3)CC2)c([C@H](CC(C)C)NC(=O)CCN(C)C)c1

>  <VALUE REPORTED>
36 ng/g

$$$$
>  <MOLECULE>
Cc1ccc([C@@H](CC(C)C)NC(=O)CCN(C)C)c(N2CCN(C(=O)[C@H](C)Cc3ccc(Cl)cc3Cl)CC2)n1

>  <VALUE REPORTED>
29 ng/g

$$$$
>  <MOLECULE>
CC(C)C[C@H](NC(=O)CCN(C)C)c1cc(Cl)ccc1N1CCN(C(=O)[C@H](C)Cc2ccc(Cl)cc2)CC1

>  <VALUE REPORTED>
27 ng/g

$$$$

* * *

# EXPERIMENTAL DETAILS: Volume of distribution in Sprague-Dawley rat at 2.5 mg/kg, iv and 10 mg/kg, po
# Format: ADME, organism-based
# CONDITION: in vivo
MEASURED QUANTITY: Vd (L/kg)

>  <MOLECULE>
Cc1ccc([C@@H](CC(C)C)NC(=O)CCN(C)C)c(N2CCN(C(=O)[C@H](C)Cc3ccc(Cl)cc3Cl)CC2)n1

>  <MEASURED QUANTITY>
Vd

>  <UNITS LABEL>
L/kg

>  <VALUE REPORTED>
18.6

$$$$

* * *

# EXPERIMENTAL DETAILS: Apparent permeability from apical to basolateral side of Caco-2 cells
# Format: ADME, cell-based
# CONDITION: human

>  <MOLECULE>
CC(C)C[C@H](NCCN)c1cccc(F)c1N1CCN(C(=O)[C@@H](Cc2ccc(Cl)cc2Cl)N2CCCC2=O)CC1

>  <Papp A→B (×10⁻⁶ cm/s)>
2

$$$$
>  <MOLECULE>
Cc1ccc(N2CCN(C(=O)[C@H](C)Cc3ccc(Cl)cc3)CC2)c([C@@H](N)CC(C)C)c1

>  <Papp A→B (×10⁻⁶ cm/s)>
1.8

$$$$

* * *

clearance values for the compounds below.
# EXPERIMENTAL DETAILS: Clearance in CD1 mouse at 5 mg/kg, iv
# Format: ADME, organism-based
# Design: dose 5 mg/kg, route intravenous
# CONDITION: in vivo

>  <MOLECULE>
CC(C)C[C@H](NC(=O)CCN(C)C)c1cc(Cl)ccc1N1CCN(C(=O)[C@H](C)Cc2ccc(Cl)cc2)CC1

>  <clearance / mL/min/kg>
36

$$$$
>  <MOLECULE>
CC(C)C[C@@H](NC(=O)CN)c1cccnc1N1CCN(C(=O)[C@H](C)Cc2ccc(Cl)cc2Cl)CC1

>  <clearance / mL/min/kg>
37.4

$$$$

* * *

Entries annotated with measured concentration at 1 h
# EXPERIMENTAL DETAILS: Drug level in CD1 mouse brain at 5 mg/kg, iv after 1 hr
# Format: ADME, organism-based
# Set-up: dose 5 mg/kg, route intravenous
# CONDITION: read-out: Drug uptake
MEASURED QUANTITY: concentration at 1 h

>  <MOLECULE>
CC(C)C[C@H](NC(=O)CCN(C)C)c1cc(Cl)ccc1N1CCN(C(=O)[C@H](C)Cc2ccc(Cl)cc2)CC1

>  <VALUE REPORTED>
800 ng/g

$$$$
>  <MOLECULE>
CC(C)C[C@@H](NC(=O)CN)c1cccnc1N1CCN(C(=O)[C@H](C)Cc2ccc(Cl)cc2Cl)CC1

>  <VALUE REPORTED>
35 ng/g

$$$$

* * *

# EXPERIMENTAL DETAILS: AUC in CD1 mouse at 10 mg/kg, po
# Type: ADME, organism-based
# Set-up: dose 10 mg/kg, route oral
# CONDITION: plasma
Property: AUC; scope: individual molecules

>  <MOLECULE>
CC(C)C[C@@H](NC(=O)CN)c1cccnc1N1CCN(C(=O)[C@H](C)Cc2ccc(Cl)cc2Cl)CC1

>  <AUC, ng·h/mL>
551

$$$$
>  <MOLECULE>
CC(C)C[C@H](NC(=O)CCN(C)C)c1cc(Cl)ccc1N1CCN(C(=O)[C@H](C)Cc2ccc(Cl)cc2)CC1

>  <AUC, ng·h/mL>
1160

$$$$
>  <MOLECULE>
COc1cc(Cl)ccc1CC(C)C(=O)N1CCN(c2ccc(C(F)(F)F)cc2[C@@H](N)CC(C)C)CC1 (stereo not given in full)

>  <AUC, ng·h/mL>
249

$$$$
>  <MOLECULE>
Cc1ccc(N2CCN(C(=O)[C@H](C)Cc3ccc(Cl)cc3)CC2)c([C@@H](N)CC(C)C)c1

>  <AUC, ng·h/mL>
1760

$$$$
>  <MOLECULE>
CC(C)C[C@H](NC(=O)CN)c1cc(C(F)(F)F)ccc1N1CCN(C(=O)CCc2ccc(Cl)cc2Cl)CC1

>  <AUC, ng·h/mL>
687

$$$$

* * *

# EXPERIMENTAL DETAILS: Distribution coefficient, log D by shake flask method
# Format: physicochemical
# CONDITION: octanol/water

>  <COMPOUND>
Cc1ccc([C@@H](CC(C)C)NC(=O)CCN(C)C)c(N2CCN(C(=O)[C@H](C)Cc3ccc(Cl)cc3Cl)CC2)n1

>  <logD>
3.3

$$$$
>  <COMPOUND>
CC(C)C[C@H](NC(=O)CCN(C)C)c1cc(Cl)ccc1N1CCN(C(=O)[C@H](C)Cc2ccc(Cl)cc2)CC1

>  <logD>
3.9

$$$$
>  <COMPOUND>
COc1cc(Cl)ccc1CC(C)C(=O)N1CCN(c2ccc(C(F)(F)F)cc2[C@@H](N)CC(C)C)CC1 (stereo not given in full)

>  <logD>
4.5

$$$$
>  <COMPOUND>
Cc1ccc(N2CCN(C(=O)[C@H](C)Cc3ccc(Cl)cc3)CC2)c([C@H](CC(C)C)NC(=O)CCN(C)C)c1

>  <logD>
2.4

$$$$
>  <COMPOUND>
Cc1ccc(N2CCN(C(=O)[C@@H](Cc3ccc(Cl)cc3Cl)N3CCCC3=O)CC2)c([C@H](CC(C)C)NC(=O)CCN(C)C)c1

>  <logD>
3.9

$$$$
